Hi there, I'd appreciate the recorded OD450 nm for every entry that follows.
target: T1, recombinant human PCSK9-His protein (Immunogen A) (human, UniProt Q8NBP7 31-692, limits assumed, biotinylated in the ELISA assays); assay: ELISA; antibody 0.0067 nM
T1 construct: also called hPCSK9-His; His-tagged hPCSK9; not shown: His tag
Numbers only, in OD450 nm.

BINDER	PARAMETER	NUMERIC_READOUT
152G2F7, fully human anti-PCSK9 antibody (antibody, human IgG1, V domains shown) VH: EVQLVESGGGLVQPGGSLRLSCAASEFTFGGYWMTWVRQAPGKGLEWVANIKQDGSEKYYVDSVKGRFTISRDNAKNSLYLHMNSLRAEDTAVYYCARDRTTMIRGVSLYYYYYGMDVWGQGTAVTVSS VL: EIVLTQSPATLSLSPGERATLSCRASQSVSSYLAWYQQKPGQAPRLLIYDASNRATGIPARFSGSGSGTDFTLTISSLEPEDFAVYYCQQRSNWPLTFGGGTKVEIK	OD450 nm	0.15
74C10A8, fully human anti-PCSK9 antibody (antibody, human IgG1, V domains shown) VH: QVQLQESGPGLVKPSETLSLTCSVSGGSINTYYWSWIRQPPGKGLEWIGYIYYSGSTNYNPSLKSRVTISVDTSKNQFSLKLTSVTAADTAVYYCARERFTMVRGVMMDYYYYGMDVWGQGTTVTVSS VL: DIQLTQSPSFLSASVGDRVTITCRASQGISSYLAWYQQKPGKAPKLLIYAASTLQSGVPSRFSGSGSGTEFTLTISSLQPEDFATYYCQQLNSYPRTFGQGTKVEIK	OD450 nm	0.23

Would you kindly look at the next entry?
Recorded result, 76A1B11, fully human anti-PCSK9 antibody (antibody, human IgG1, V domains shown) VH: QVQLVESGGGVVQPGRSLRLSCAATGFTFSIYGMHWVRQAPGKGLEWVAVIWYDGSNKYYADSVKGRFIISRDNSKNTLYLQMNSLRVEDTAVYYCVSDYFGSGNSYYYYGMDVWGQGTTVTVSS VL: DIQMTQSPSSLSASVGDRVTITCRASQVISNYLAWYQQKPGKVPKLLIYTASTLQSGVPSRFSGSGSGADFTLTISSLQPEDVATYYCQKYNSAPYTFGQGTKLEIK , OD450 nm: 0.14
